- target.of.assay: Adenosine receptor A1 (Homo sapiens, UniProt P30542)
- Sequence (P30542 whole entry): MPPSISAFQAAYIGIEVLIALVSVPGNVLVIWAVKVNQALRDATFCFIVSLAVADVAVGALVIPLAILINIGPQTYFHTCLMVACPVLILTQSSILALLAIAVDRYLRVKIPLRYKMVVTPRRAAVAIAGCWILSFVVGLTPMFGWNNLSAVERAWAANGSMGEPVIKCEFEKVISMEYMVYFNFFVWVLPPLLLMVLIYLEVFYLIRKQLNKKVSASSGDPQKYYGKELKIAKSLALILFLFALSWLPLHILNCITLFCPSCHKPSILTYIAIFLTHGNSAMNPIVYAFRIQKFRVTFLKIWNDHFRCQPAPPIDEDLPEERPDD
- experiment.summary: Displacement of [3H]CCPA from recombinant human adenosine receptor A1 expressed in CHO cell membranes
Kindly state Ki for each of the entries shown.
Entry rule: numbers only, all in µM.

Exercise: Find the measured Ki: item CCCCn1c(=O)c2c(nc3n2CCCN3c2ccc(OCCN3CCCC3)cc2)n(CCCC)c1=O , target or system Adenosine receptor A1 (Homo sapiens, UniProt P30542).
Key: 0.658

Exercise: Find the measured Ki: item CCCCn1c(=O)c2c(nc3n2CCCN3c2ccc(OCCN(CC)CC)cc2)n(CCCC)c1=O , target or system Adenosine receptor A1 (Homo sapiens, UniProt P30542).
Key: 1.19

Exercise: Find the measured Ki: item CCn1c(=O)c2c(nc3n2CCCN3CCc2ccc(O)cc2)n(CC)c1=O , target or system Adenosine receptor A1 (Homo sapiens, UniProt P30542).
Key: 2.02

Exercise: Find the measured Ki: item CCCCn1c(=O)c2c(nc3n2CCCN3CCc2ccc(OCCN(CC)CC)cc2)n(CCCC)c1=O , target or system Adenosine receptor A1 (Homo sapiens, UniProt P30542).
Key: 1.55

Exercise: Find the measured Ki: item CCCCn1c(=O)c2c(nc3n2CCCN3c2ccc(OCCN(C)C)cc2)n(CCCC)c1=O , target or system Adenosine receptor A1 (Homo sapiens, UniProt P30542).
Key: 0.539

Exercise: Find the measured Ki: item CCCCn1c(=O)c2c(nc3n2CCCN3c2ccc(OCCN3CCCCC3)cc2)n(CCCC)c1=O , target or system Adenosine receptor A1 (Homo sapiens, UniProt P30542).
Key: 0.713

Exercise: Find the measured Ki: item CCCn1c(=O)c2c(nc3n2CCCN3c2ccc(OCCN3CCCC3)cc2)n(CCC)c1=O , target or system Adenosine receptor A1 (Homo sapiens, UniProt P30542).
Key: 1.99
